assayed_target: 5α-Reductase of Rat Liver Microsomes (Rattus norvegicus, UniProt P24008)
experiment: [3H]4-MA binding assay, rat liver microsomes (tea catechins)
experimental_setup: read-out: % Inhibition of [^3 H]4-MA binding
Recorded inhibition at 200 µM for the following molecules
API: value field is a number in %; no unit string.

>>> reading("O=C(O[C@H]1Cc2c(O)cc(O)cc2O[C@@H]1c1ccc(O)c(O)c1)c1cc(O)c(O)c(O)c1 [CG, (-)Catechin-3-gallate]")
91

Q: Which inhibition at 200 µM is listed for O=C(O[C@@H]1Cc2c(O)cc(O)cc2O[C@@H]1c1cc(O)c(O)c(O)c1)c1cc(O)c(O)c(O)c1 [EGCG, (-)Epigallocatechin-3-gallate] ?
Ans: 93

Q: What value of measured inhibition at 200 µM is listed for O=C(O[C@@H]1Cc2c(O)cc(O)cc2O[C@@H]1c1ccc(O)c(O)c1)c1cc(O)c(O)c(O)c1 [ECG, (-)Epicatechin-3-gallate] ?
Ans: 92

* * *

Collected inhibition at 10 µM values appear next to each entry.
assayed_target: 5α-Reductase of Rat Liver Microsomes (Rattus norvegicus)
Sequence (P24008 1-259): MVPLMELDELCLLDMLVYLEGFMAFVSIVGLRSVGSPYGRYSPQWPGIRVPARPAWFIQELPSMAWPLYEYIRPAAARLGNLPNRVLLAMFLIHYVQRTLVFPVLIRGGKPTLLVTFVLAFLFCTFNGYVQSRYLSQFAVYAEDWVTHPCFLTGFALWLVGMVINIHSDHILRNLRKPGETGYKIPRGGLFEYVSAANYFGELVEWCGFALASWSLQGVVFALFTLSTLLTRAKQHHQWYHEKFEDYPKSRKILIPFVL
experiment: biochemical
experimental_setup: read-out: % Inhibition of [^3 H]4-MA binding, Table 2, 10 μM

Sample records with inhibition at 10 µM:
>>> reading("CCCCC/C=C\\C/C=C\\C/C=C\\CCCCC(=O)OCC(COC(=O)CCCC/C=C\\C/C=C\\C/C=C\\CCCCC)OC(=O)CCCC/C=C\\C/C=C\\C/C=C\\CCCCC [Tri-γ-Linolenin, tri-γ-linolenin]")
"< 10%"
>>> reading("CCCCCCCC/C=C\\CCCCCCCCCCC(=O)O")
"15%"
>>> reading("CCCCCCCCCCCCCCCCCCCC(=O)Cl [Arachidoyl Chloride, archidoyl chloride]")
"< 10%"

Q: Name the reported inhibition at 10 µM value associated with the compound CCCCC/C=C\C/C=C\CCCCCCCC(=O)O [Linoleic acid]
Ans: < 10%

* * *

assayed_target: 5α-Reductase of Rat Liver Microsomes (Rattus norvegicus)
experiment: biochemical
experimental_setup: read-out: % Inhibition of [^3 H]4-MA binding, Table 2, 200 μM
reported_metric: inhibition at 200 µM

>>> reading("CCCCC/C=C\\CCCCCCCCCCC(=O)O")
"< 10%"
>>> reading("CCCCC/C=C\\C/C=C\\C/C=C\\CCCCC(=O)OCC(COC(=O)CCCC/C=C\\C/C=C\\C/C=C\\CCCCC)OC(=O)CCCC/C=C\\C/C=C\\C/C=C\\CCCCC")
"< 10%"

Attention now turns to another entry.
Q: Param item = CCCCCCCC/C=C/CCCCCCCC(=O)O ; retrieve measured inhibition at 200 µM.
Ans: < 10%

* * *

assayed_target: 5α-Reductase of Rat Liver Microsomes (Rattus norvegicus)
experiment: biochemical
experimental_setup: read-out: % Inhibition of [^3 H]4-MA binding, Table 1, 200 μM
reported_metric: inhibition at 200 µM

Reference set (2 entries):
>>> reading("CCCCCCCC/C=C\\CCCCCCCCCCCCCC(=O)O [Nervonic acid]")
"< 10%"
>>> reading("CCCCCCCC/C=C\\CCCCCCCCCCCC(=O)O [Erucic acid]")
"< 10%"

Attention now turns to another entry.
Q: Notebook: pull reported inhibition at 200 µM for 5α-Reductase of Rat Liver Microsomes (Rattus norvegicus), entry CCCCCCCCCCCCCCCCCC(=O)O [Stearic acid]
Ans: < 10%
